B1: HDAC6 (parent)
chain: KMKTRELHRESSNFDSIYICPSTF

Variants of: B1
PROCEDURE_SUMMARY: protein stability index of a GFP-peptide fusion (GPS, HEK-293T) (PSI 1-6); higher = more stable;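 further: lentivirally expressed fusions sorted by FACS into six bins by GFP to DsRed ratio, PSI derived from sequencing read proportions per bin multiplied by bin number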
CONDITION_PARAMETERS: c terminus: a fixed tail appended
MEASURE_NAME: protein stability index

> print(dat)
   variant.description  quantitative.result
1                 E10D                 2.03
2                  H8W                 1.83
3                  M2A                 3.17
4                 F14E                 3.34
